- Test system: RPMI-8226 leukemia
- ASSAY_PROCEDURE: NCI-60 one-dose screen, 48 h
- CONDITION_INFO: 10 µM unless noted
About 83,000 compounds went through this panel and 20% of them were active in at least one assay; those are over-represented in the sample as a whole. Activity calls are given as the source filed them. Rule for the calls: active = growth percent below 10; inactive = the rest.
Labels: YES = active, NO = inactive

[[record]]
compound = "COc1cccc(CC(C)=C(c2ccc(OCCN(C)C)cc2)c2ccc(OCCN(C)C)cc2)c1"
qualitative_label = "YES"

[[record]]
compound = "COc1ccc(/C=C2\\Oc3cc(OCCCN4CCCC4)ccc3C2=O)cc1"
qualitative_label = "NO"

[[record]]
compound = "CCN(CC)CCC(CNc1ccnc2cc(Cl)ccc12)c1ccccc1 (stereo not given)"
qualitative_label = "NO"

[[record]]
compound = "N[C@H]1CN(C(=O)c2cc3cc(Br)c(F)c(F)c3[nH]2)C[C@@H]1O"
qualitative_label = "NO"

[[record]]
compound = "Cc1nc2cncc(C#Cc3cncc(C(=O)Nc4ccc(CN5CCN(C)CC5)c(C(F)(F)F)c4)c3)c2nc1C"
qualitative_label = "YES"


---

- System: UACC-62 melanoma
- ASSAY_PROCEDURE: NCI-60 one-dose screen, 48 h (100 = growth as untreated, 0 = no growth, -100 = all killed)
- CONDITION_INFO: 10 µM unless noted
This is part of a sample that, as a whole, favours compounds with a hit. Of some 83,000 tested, about 20% had one in any assay. Activity calls are given as the source filed them. The calls were made as follows: active = growth percent below 10; inactive = the rest.
Form field: growth (one value per entry).
ATTRIBUTE_MEASURED: growth

[[record]]
compound = "CCCCCCCC[C@@H](O)CC(=O)N[C@@H](CC(N)=O)C(=O)N[C@@H](CCC(N)=O)C(=O)N[C@@H](CC(=O)c1cc(C)cc(O)c1C(=O)c1c(O)cccc1O)CC(C)C"
system_name = "UACC-62 melanoma"
value_observed = "0.947% (active)"

[[record]]
compound = "Brc1cccc(-c2cc(-c3ccc4c(c3)OCCCO4)[nH]n2)c1"
system_name = "UACC-62 melanoma"
value_observed = "60.2% [25 µM] (inactive)"

[[record]]
compound = "O=C(Nc1ccc2c(c1)OCO2)C(=O)c1c[nH]c2cc(F)ccc12"
system_name = "UACC-62 melanoma"
value_observed = "22% (inactive)"

[[record]]
compound = "C=C1CCC2C(C)(CO)C(O)CCC2(C)C1C/C=C1/C(=O)OCC1Oc1ccccc1C (centres undefined)"
system_name = "UACC-62 melanoma"
value_observed = "77.3% (inactive)"

[[record]]
compound = "COc1ccc(-c2cn(-c3cccc(C(=O)/C=C/c4cc(OC)c(OC)c(OC)c4)c3)c(=O)[nH]2)cc1OC"
system_name = "UACC-62 melanoma"
value_observed = "73.1% (inactive)"

[[record]]
compound = "Cc1ccc(-c2cc3nc(-c4ccccc4)nc(C(Cl)Cl)n3n2)cc1"
system_name = "UACC-62 melanoma"
value_observed = "-65.3% (active)"

[[record]]
compound = "CN(CCCCCl)P(=O)(OCc1ccc([N+](=O)[O-])o1)C(F)(F)C[C@H](NC(=O)CNC(=O)c1ccc(N=[N+]=[N-])cc1)C(=O)NCCc1ccc(O)cc1 (some centres undefined)"
system_name = "UACC-62 melanoma"
value_observed = "59.7% (inactive)"

[[record]]
compound = "O=C1NC(=C(Cl)Cl)/C(=N/S(=O)(=O)N2CCC(C3(C(F)(F)F)N=N3)CC2)N1"
system_name = "UACC-62 melanoma"
value_observed = "91.7% (inactive)"

[[record]]
compound = "ClC(Cl)c1nc(-c2ccccc2)nc2cc(-c3ccccc3)nn12"
system_name = "UACC-62 melanoma"
value_observed = "62.8% (inactive)"

[[record]]
compound = "Nc1cccc(Cl)c1N"
system_name = "UACC-62 melanoma"
value_observed = "108% (inactive)"

[[record]]
compound = "O=Nc1c(-c2cccc([N+](=O)[O-])c2)nc2ncccn12"
system_name = "UACC-62 melanoma"
value_observed = "92.8% (inactive)"

[[record]]
compound = "CC(C)(C)c1[nH]nc2c1C(c1cc3ccccc3[nH]c1=O)Nc1cc(C(=O)Nc3ccc(Cl)cc3)ccc1N2 (centres undefined)"
system_name = "UACC-62 melanoma"
value_observed = "73.1% (inactive)"

[[record]]
compound = "Cc1[nH]c2ccc(F)cc2c1CCNC(=O)C1CCN(C(=O)c2ccccc2)CC1"
system_name = "UACC-62 melanoma"
value_observed = "82.5% [25 µM] (inactive)"

[[record]]
compound = "Cc1ccc(S(=O)(=O)n2cc(C(=O)C(=O)N3CCOCC3)c3ccccc32)cc1"
system_name = "UACC-62 melanoma"
value_observed = "68.1% (inactive)"

[[record]]
compound = "C=C[C@@H]1C[C@@H]2Cc3ccccc3N1O2"
system_name = "UACC-62 melanoma"
value_observed = "101% (inactive)"

[[record]]
compound = "COc1ccc(S(=O)(=O)n2ccc(-c3ccc4c(c3)CCC(C)(C)O4)n2)cc1OC"
system_name = "UACC-62 melanoma"
value_observed = "63.9% (inactive)"

[[record]]
compound = "CCN(CC)CCCC(C)Nc1c2ccc(Cl)cc2nc2cc(OC)c(OC)cc12 (centres undefined)"
system_name = "UACC-62 melanoma"
value_observed = "-38% (active)"

[[record]]
compound = "COc1cc(-c2ncn(/C=C\\C(=O)OC(C)C)n2)cc(C(F)(F)F)c1"
system_name = "UACC-62 melanoma"
value_observed = "-10.9% (active)"

[[record]]
compound = "S=c1[nH]nc(-c2cc3ccc2CCc2ccc(cc2)CC3)n1C1CC1"
system_name = "UACC-62 melanoma"
value_observed = "80.2% (inactive)"

[[record]]
compound = "O=C(NS(=O)(=O)c1ccccc1)n1cc(-c2ccncc2)c(-c2ccc(Cl)c(O)c2)n1"
system_name = "UACC-62 melanoma"
value_observed = "59% (inactive)"

[[record]]
compound = "O=c1[nH]c2ccc(Br)cc2c2c1C(c1ccc(Cl)cc1)c1c(ncn3nc(-c4ccco4)nc13)O2 (centres undefined)"
system_name = "UACC-62 melanoma"
value_observed = "59.8% (inactive)"

[[record]]
compound = "CN(C)c1ncnc2c1ccn2C1OC(CO)C(O)C1O (centres undefined)"
system_name = "UACC-62 melanoma"
value_observed = "93.4% (inactive)"

[[record]]
compound = "O=C(Nc1ccncc1)C(=O)c1cn(S(=O)(=O)c2ccc(Br)cc2)c2ccccc12"
system_name = "UACC-62 melanoma"
value_observed = "38.3% (inactive)"

[[record]]
compound = "COc1ccc(-c2nc(/C=N/Nc3cc(C)nc4ccc(Cl)cc34)c(C)o2)cc1"
system_name = "UACC-62 melanoma"
value_observed = "14.5% (inactive)"

